Answer each item with its documented viability (% of control).
- RUN_DESCRIPTION: High-throughput drug toxicity screening in the BPDCN cell line Cal-1 (AID 1224825);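 also: cells exposed to compounds for 48 h; 100% = DMSO and 0% = bortezomib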
- TEST_CONDITIONS: Cal-1 BPDCN cell viability, qHTS; at 45.8 µM (top of the series) unless noted
Answer with a number only, understood to be in %.

Task item: Bench note: what viability (% of control) did CN(C)CCCN=c1c2ccccc2n(C)c2[nH]c(=O)n(C)c(=O)c12 show?
Reply: 4

Task item: Bench note: what viability (% of control) did CC1(C)CCC(c2ccc(Cl)cc2)=C(CN2CCN(c3ccc(C(=O)NS(=O)(=O)c4ccc(N[C@H](CCN5CCOCC5)CSc5ccccc5)c(S(=O)(=O)C(F)(F)F)c4)cc3)CC2)C1 show?
Reply: 16.1

Task item: Bench note: what viability (% of control) did O=C(CCCCCCC(=O)Nc1ccc([C@H]2O[C@@H](CSc3nc(-c4ccccc4)c(-c4ccccc4)o3)C[C@@H](c3ccc(CO)cc3)O2)cc1)NO show?
Reply: 4.48

Task item: Bench note: what viability (% of control) did COc1cc2ncn(-c3cc(OCc4ccccc4C(F)(F)F)c(C(N)=O)s3)c2cc1OC show?
Reply: 4.46

Task item: Bench note: what viability (% of control) did CCN(CC)CCCCNc1ncc2cc(-c3cc(OC)cc(OC)c3)c(NC(=O)NC(C)(C)C)nc2n1 show?
Reply: 1.79

Task item: Bench note: what viability (% of control) did Cc1ccc(C(N)=O)cc1Nc1nccc(-c2cn(C(C)C)c3cnccc23)n1 show?
Reply: 3.01

Task item: Bench note: what viability (% of control) did Nc1ccn([C@@H]2O[C@H](CO)[C@H](O)C2(F)F)c(=O)n1 show?
Reply: 11.1

Task item: Bench note: what viability (% of control) did CC(O)C1C(=O)N2C(C(=O)O)=C(SC3CNC(C(=O)N(C)C)C3)C(C)C12 (centres undefined) show?
Reply: 98.9

Task item: Bench note: what viability (% of control) did CC=CC1=C(C(=O)O)N2C(=O)[C@H](NC(=O)[C@H](N)c3ccc(O)cc3)[C@@H]2SC1 show?
Reply: 89.2
